Cited source for all entries: PubChem BioAssay (NCATS)

test system: MKL-2; assay: qHTS assay to identify novel small-molecules to repurpose for Merkel cell carcinoma treatment (AID 1296009); details: MCC and control cell lines, CellTiter-Glo viability, 72 h; series mostly up to 46 µM; note: nearly all actives have a fitted effect of over 60% in size
Records with an inconclusive call do not appear. Activity calls are given as the source filed them. Calls come from the whole dose curve; as a rule, active = well fitted inhibition curve with a large enough effect; inconclusive = small, poorly fitted or top-dose-only effect; inactive = flat fitted curve, though single readings scatter.
Outcome field: choose from true (1) (active), false (0) (inactive)

Field: example entries. Status: answers known.
compound=Nc1ccc([As](=O)(O)O)cc1 target_or_test_system=MKL-2 class_assignment="false (0)"
compound=COc1ccc2c(c1OC)C(=O)O[C@H]2[C@@H]1c2cc3c(cc2CCN1C)OCO3 target_or_test_system=MKL-2 class_assignment="false (0)"
compound=CCN[C@H](C)Cc1cccc(C(F)(F)F)c1 target_or_test_system=MKL-2 class_assignment="false (0)"
compound=CCC1(CC)C(=O)C=CNC1=O target_or_test_system=MKL-2 class_assignment="false (0)"
compound=Clc1ccc(C(c2ccc(Cl)cc2)C(Cl)(Cl)Cl)cc1 target_or_test_system=MKL-2 class_assignment="false (0)"

Query block: Identify the outcome logged in this assay for the compound shown: COC1CC(=C(c2cccs2)c2cccs2)C[N+](C)(C)C1 (configuration not stated)
Result block: true (1)

Query block: What call does the record list for C#C[C@]1(O)CC[C@H]2[C@@H]3CCC4=CC(=O)CC[C@]4(C)[C@H]3CC[C@@]21C ?
Result block: false (0)

Query block: // param item: O=C1OC(CCN2CCCCC2)OC1(c1ccccc1)c1ccccc1 (configuration not stated) ; yields the recorded call
Result block: true (1)

Query block: Query: recorded result category for Nc1nc(N)nc(NC2CC2)n1 in this test
Result block: false (0)

Query block: Hey, what did the test say about CN(C)CCc1c[nH]c2cccc(OP(=O)(O)O)c12 ?
Result block: false (0)

Query block: What classification did COP(=S)(OC)SCN1C(=O)c2ccccc2C1=O end up with in this test?
Result block: true (1)

Query block: For c1ccc(N2CCNCC2)cc1 , which call appears in the assay record?
Result block: false (0)

====

experiment: NFAT Signaling Pathway (AID 444); details: Jurkat NFAT-bla M1, carbachol, beta-lactamase ratio, 5 h; at 17.2 µM (top of the series);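 note: carbachol stimulus at about its EC50 of 1 µM final; % is set by controls: 0 for no effect and ±100 for the full control effect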
Inconclusive results are not listed. Calls of active or inactive are those of the source. Calls come from the whole dose curve; as a rule, active = well fitted curve in either direction with a large enough effect (not every such curve was filed as active); inconclusive = small, poorly fitted or top-dose-only effect, or another doubt; inactive = flat fitted curve, though single readings scatter.
RECORDED ENDPOINT: activity change, negative = inhibition

Some solved entries appear below for comparison.
smiles_input=CC(C)c1cccc(C(C)C)c1O measured_value="-3.69% (inactive)"
smiles_input=CNC(C)(C)Cc1ccccc1 measured_value="-3.4% (inactive)"
smiles_input=O=C(CCCN1CCC2(CC1)C(=O)NCN2c1ccccc1)c1ccc(F)cc1 measured_value="-4.55% (inactive)"
smiles_input=COc1c2c(cc3c1OCO3)CCN(C)C2 measured_value="-27% (inactive)"
smiles_input=C[C@]12CCC(=O)C=C1CC[C@@H]1[C@@H]2CC[C@]2(C)C(=O)CC[C@@H]12 measured_value="7.44% (inactive)"
smiles_input=[N-]=[N+]=CC(=O)OC[C@H](N)C(=O)O measured_value="-1.72% (inactive)"
smiles_input=O=c1oc2ccccc2c(O)c1Cc1c(O)c2ccccc2oc1=O measured_value="-5.31% (inactive)"

Query block: Given the molecule CCC1(CC)C(=O)C=CNC1=O , write its reported activity change, negative = inhibition.
Result block: -4.7% (inactive)

====

experiment: Quantitative high throughput screen for delayed death inhibitors of the malarial parasite plastid, 48 hour incubation (AID 488752); conditions: Plasmodium falciparum growth; series mostly up to 28.7 µM; note: nearly all actives have a fitted effect of over 65% in size
Inconclusive results are not listed. Activity calls are given as the source filed them. Calls follow the shape of the dose curve; as a rule, active = well fitted inhibition curve with a large enough effect; inconclusive = small, poorly fitted or top-dose-only effect, or effect the other way; inactive = flat fitted curve, though single readings scatter.
One label from this list, please: active, inactive

Solved cases (3 shown):
compound=COc1ccc2c(c1OC)C(=O)O[C@H]2[C@@H]1c2cc3c(cc2CCN1C)OCO3 class_assignment=inactive
compound=CC(=O)N1CCN(c2ccc(OC[C@H]3CO[C@](Cn4ccnc4)(c4ccc(Cl)cc4Cl)O3)cc2)CC1 class_assignment=active
compound="CC(C)(C)NCC(O)c1ccccc1Cl (stereo not given)" class_assignment=inactive

Query block: Per the assay record, what outcome was assigned to O=P1(N(CCCl)CCCl)NCCCO1 (stereo not given) ?
Result block: inactive

Query block: Entry C=C(C)[C@H]1CN[C@H](C(=O)O)[C@H]1CC(=O)O : call = ?
Result block: inactive

Query block: Hi, sorry to bother you, what did the test record for O=c1[nH]oc2c1CCNC2 ?
Result block: inactive

Query block: Dear all, I need the recorded test outcome for CCC1(c2ccc(N)cc2)CCC(=O)NC1=O (stereo not given) , thank you.
Result block: inactive

Query block: Tell me the assay call for CC(C)c1cccc(C(C)C)c1O please.
Result block: inactive

Query block: Identify the outcome logged in this assay for the compound shown: O=C(O)CCCc1ccc(N(CCCl)CCCl)cc1
Result block: inactive

Query block: Which outcome was entered for the compound CC(NC(C)(C)C)C(=O)c1cccc(Cl)c1 (stereo not given) in this test?
Result block: inactive

====

System: CP325
Assay: qHTS profiling for inhibitors of Plasmodium falciparum proliferation (AID 504749);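 note: 0% = DMSO vehicle and full inhibition = artemisinin control; nearly all actives have a fitted effect of over 60% in size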
Conditions: P. falciparum in erythrocytes, SYBR Green DNA, 72 h; series mostly up to 28.7 µM
Experimental: NIH National Institute of Allergy and Infectious Diseases [NIAID] NIH Chemical Genomics Center [NCGC] […] Because mature erythrocytes lack DNA, only Plasmodium-derived DNA is detected. NCGC Assay Protocol Summary: The SYBR Green viability assay was adapted from a method described previously (Plouffe et al., 2008). […] The following morning, fluorescence intensity at 485(14) nm excitation and 535(25) nm emission wavelengths was measured on an EnVision (Perkin Elmer) plate reader. […]
Inconclusive results are not listed. Active and inactive are the calls of the source. Calls come from the whole dose curve; as a rule, active = well fitted inhibition curve with a large enough effect; inconclusive = small, poorly fitted or top-dose-only effect; inactive = flat fitted curve, though single readings scatter.
RECORDED ENDPOINT: activity, negative = inhibition

These solved cases illustrate the format of a correct answer.
molecule=Oc1ccc(Cl)cc1 measured_value=inactive
molecule=Nc1ccc([As](=O)(O)O)cc1 measured_value=inactive
molecule=c1ccc2c(c1)sc1ccccc12 measured_value=inactive
molecule="O=C1Nc2ccc(Cl)cc2C(c2ccccc2)=NC1O (configuration not stated)" measured_value=inactive
molecule="CN1C(=O)NC(=O)C(C)(C2=CCCCC2)C1=O (configuration not stated)" measured_value=inactive
molecule="CCOC(=O)CC(SP(=S)(OC)OC)C(=O)OCC (configuration not stated)" measured_value=inactive

Quick request: activity, negative = inhibition for each listed item, please.
1. CN1C(=O)C(O)N=C(c2ccccc2)c2cc(Cl)ccc21 (configuration not stated)
2. C[C@]12CC[C@@H]3c4ccc(OC(=O)N(CCCl)CCCl)cc4CC[C@H]3[C@@H]1CC[C@@H]2O
3. O=c1oc2ccccc2c(O)c1Cc1c(O)c2ccccc2oc1=O

Result block:
1. inactive
2. inactive
3. inactive

Respectfully, I request activity, negative = inhibition for each entry included below.
1. O=C(O)CCCc1ccc(N(CCCl)CCCl)cc1
2. CCCCCCCCCC(=O)O[C@H]1CC[C@H]2[C@@H]3CCC4=CC(=O)CC[C@@H]4[C@H]3CC[C@]12C
3. CC(C)c1cccc(C(C)C)c1O
4. Nc1ccccc1C(=O)O

Result block:
["inactive", "inactive", "inactive", "inactive"]

Give measured activity, negative = inhibition for every item shown.
1. O=P1(N(CCCl)CCCl)NCCCO1 (configuration not stated)
2. CCCCCCC(=O)CCCCCC/C=C/C[C@@H](O)[C@H](O)[C@@](N)(CO)C(=O)O

Result block:
["inactive", "inactive"]

Provide activity, negative = inhibition values for the following items, in order.
1. CCC1(CC)C(=O)C=CNC1=O
2. CCC(C)(C)c1ccc(O)cc1

Result block:
["inactive", "inactive"]

// batch mode: one activity, negative = inhibition value per listed entry
1. O=C1CN=C(c2ccccc2)c2cc([N+](=O)[O-])ccc2N1
2. CC(C)NC(C)C

Result block:
inactive
inactive

Can you give me activity, negative = inhibition for all of these, one by one?
1. Nc1nc(N)nc(NC2CC2)n1
2. NC(=O)CS(=O)C(c1ccccc1)c1ccccc1 (configuration not stated)
3. Clc1cccc(SC2CCNCC2)n1

Result block:
1. inactive
2. inactive
3. inactive

Dear colleague, could you please provide activity, negative = inhibition for the molecules listed below?
1. C=C(C)[C@H]1CN[C@H](C(=O)O)[C@H]1CC(=O)O
2. COP(=S)(OC)Oc1ccc(S(=O)(=O)N(C)C)cc1
3. CCCC(C)(COC(N)=O)COC(N)=O
4. O=C1Nc2ccc(Cl)cc2C(c2ccccc2Cl)=NC1O (configuration not stated)
5. Clc1ccc(C(c2ccc(Cl)cc2)C(Cl)(Cl)Cl)cc1

Result block:
["inactive", "inactive", "inactive", "inactive", "inactive"]

====

assay: Primary qHTS to identify inhibitors of SARS-CoV-2 cell entry (AID 1645846); conditions: SARS-CoV-2 pseudovirus cell entry assay, luminescence; series mostly up to 57.1 µM; note: nearly all actives have a fitted effect of over 45% in size
Inconclusive results are not listed. Activity calls are given as the source filed them. Calls come from the whole dose curve.
RECORDED ENDPOINT: outcome

// solved cases for outcome follow
compound="COC(=O)CCCCC(CCSS/C(CCO)=C(\\C)N(C=O)Cc1cnc(C)nc1N)SC(C)=O (stereo unspecified)" measured_value=inactive
compound=NC(=O)c1cc[n+](CC2=C(C(=O)[O-])N3C(=O)[C@@H](NC(=O)Cc4cccs4)[C@H]3SC2)cc1 measured_value=inactive
compound="CCCNC(C)C(=O)Nc1ccccc1C (stereo unspecified)" measured_value=inactive
compound=Clc1cccc(Cl)c1NC1=NCCN1 measured_value=inactive
compound=NCCS(=O)(=O)O measured_value=inactive

Kindly review the next compound as well.
Query block: For the compound NNC(=O)c1ccncc1 , report outcome.
Result block: inactive
